Consider the following compounds and their measured z-score readings.
assay: A549 lung cancer cell viability effects, profiling panel, resazurin fluorescence, 24 h, PK04 Diversity Set (AID 1171); conditions: higher = more signal, called active from +8 up or from −8 down; further: test concentration not given here
Calls of active or inactive are those of the source.
measured_parameter: z-score

{"columns": ["compound", "reported_measurement"],
 "data": [
  ["CCOC(=O)C[C@H]1[C@H](OC(=O)c2cc3ccccc3oc2=O)[C@@H](NC(=O)Cc2ccc(OC)cc2)c2cc(OCCCO)ccc2N1C(=O)Cc1ccc(OC)cc1", "0.551 (inactive)"],
  ["O=C(O)C1=CC[C@H]2C(=O)N(c3ccccc3)C(=O)[C@@H]12", "0.64 (inactive)"],
  ["CCCN1C(=O)[C@@]2(c3ccc([N+](=O)[O-])cc3)CC(=O)N(C3CCCCC3)[C@@H]2c2ccc(CO)cc21", "-0.291 (inactive)"],
  ["CC(C)(C)OC(=O)N1[C@@H](C=C(Br)Br)COC1(C)C", "-1.4 (inactive)"],
  ["COc1ccc(CCNC(=O)[C@@]2(C)c3ccccc3C(=O)N(Cc3ccc(OC(F)(F)F)cc3)[C@H]2c2ccc(CO)cc2)cc1", "2.43 (inactive)"],
  ["COC(=O)[C@@]1(Cc2ccc(F)cc2)[C@H]2c3cc(C(=O)N(C)C)n(Cc4ccsc4Br)c3C[C@H]2CN1C(=O)c1ccccc1", "-0.836 (inactive)"],
  ["C=C(C(=O)CC[C@@H](OC(=O)c1ccccc1-c1ccccc1C(=O)O)c1cccc(OCCO)c1)C(C)C", "1.33 (inactive)"],
  ["[N-]=[N+]=Nc1ccccc1C[C@]1(C(N)=O)COC(c2ccc(OCCCO)cc2)=N1", "0.246 (inactive)"],
  ["C=C(C)C1CN([C@H](CO)c2ccccc2)C(=O)/C1=C\\c1ccccc1 (stereo partly specified)", "-0.846 (inactive)"],
  ["C=C(C(=O)CC[C@H](OC(=O)c1ccccc1-c1ccccc1C(=O)O)c1ccc(OCCO)cc1)C(C)C", "0.393 (inactive)"],
  ["C=CCC(OC(C)=O)[C@@H]1[C@@H](N(Cc2ccc(-c3ccccc3)cc2)C(=O)Cc2ccc(OC)cc2)c2cc(OCCCO)ccc2N1C(=O)Cc1ccc(OC)cc1 (stereo partly specified)", "0.117 (inactive)"],
  ["COC(=O)[C@@]1(Cc2ccc(F)cc2)[C@H]2c3cc(C(=O)N4CCCC4)n(Cc4ccc(C(F)(F)F)nc4)c3C[C@H]2CN1C(=O)c1ccccc1", "0.052 (inactive)"],
  ["CC1C2C(CCCO)=CC(C3C(=O)N(C(N)=O)C(=O)C23)N1Cc1cccc(OC(F)(F)F)c1 (stereo unspecified)", "-0.13 (inactive)"],
  ["COC(=O)C[C@H]1O[C@]2(C(=O)N(C)c3ccccc32)[C@@H](C)[C@@H]1[Si](C)(C)c1ccccc1", "1.38 (inactive)"],
  ["CCCNC(=O)[C@@]1(Sc2ccc(C)cc2)CC(=O)N(Cc2cc(C(F)(F)F)cc(C(F)(F)F)c2)[C@@H]1c1ccc(CO)cc1", "0.149 (inactive)"],
  ["COc1ccc(C(O)C2C=CC3C(=O)N(c4ccccc4)C(=O)C3N2Nc2ccccc2F)c2ccccc12 (stereo unspecified)", "0.473 (inactive)"]
]}

----------
Consider the following compounds and their measured z-score readings.
assay: E. coli DRC41 culture turbidity changes, primary screen, E. coli filamentation inducer project, strain DRC41, OD650, 48 h (AID 1152);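 further: E. coli MC1000 strain DRC41 lacking acrAB efflux pump and sulA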; details: E. coli DRC41 (acrAB sulA), higher = more signal, called active from +8 up or from −8 down

{"columns": ["compound", "z-score"],
 "data": [
  ["CC(C)(C)OC(=O)CC[C@@]1(C(N)=O)N=C(c2ccc(OCCCO)cc2)O[C@@H]1c1ccccc1CN=[N+]=[N-]", -0.216],
  ["COC(=O)[C@@]1(Cc2ccc(F)cc2)[C@H]2c3cc(C(=O)N(C)C)n(CCF)c3C[C@H]2CN1C(=O)c1ccccc1", 1.28],
  ["CN1C2C=C(c3ccc(CO)cc3)C(C3C(=O)N(C(N)=O)C(=O)C32)C1C1CC1 (configuration not stated)", 0.149],
  ["CCOC(=O)C1=CC[C@@H](c2ccccc2)N(S(=O)(=O)c2ccc(C)cc2)[C@@H]1C#N", 0.49],
  ["CC(C)[Si](C#Cc1ccccc1)(O[C@H](c1ccccc1)c1cn(Cc2ccccc2)nn1)C(C)C", 1.57],
  ["O=C1C2C=CC(C(O)C3CC=CCC3)N(Nc3ccc([N+](=O)[O-])cc3)C2C(=O)N1c1ccccc1 (configuration not stated)", -0.852],
  ["C[C@]1(C(=O)NC2CC2)c2ccccc2C(=O)N(Cc2cc(F)cc(C(F)(F)F)c2)[C@H]1c1ccc(CO)cc1", 0.256],
  ["CCCCCCc1nc(-c2ccc(OC)nc2)c(C)c2c1[Si](C(C)C)(C(C)C)OC2", 0.579],
  ["[N-]=[N+]=NCc1ccccc1C[C@]1(C(=O)N2CCCCC2)COC(c2ccc(OCCCO)cc2)=N1", 2.89],
  ["CCN1C(=O)C2CC(=O)C3C(CN(S(=O)(=O)c4ccc(C)cc4)C3c3ccc(C)cc3)C2C1=O (configuration not stated)", 0.344],
  ["CS(=O)(=O)CCOC(=O)C1=CC(CCCO)=CC(C2CC2)N(Cc2sc3ccccc3c2Cl)C=C1C(=O)OCCS(C)(=O)=O (configuration not stated)", -0.406],
  ["C=C(C)C1CN([C@H](CO)c2ccccc2)C(=O)/C1=C\\c1ccccc1 (some centres not stated)", 1.01],
  ["CCCC[C@@H](O)C1=C(C)Cn2c(=O)n(-c3ccccc3)c(=O)n2[C@H]1CO", 3.02],
  ["[N-]=[N+]=Nc1ccccc1C[C@@]1(C(=O)NCc2ccccc2)N=C(c2ccc(OCCCO)cc2)O[C@@H]1c1ccccc1", 0.0295],
  ["O=C1OCCC/C=C\\[C@H]2OC34C=CCN(Cc5ccccc5)C(=O)[C@H]3N(CCO)C(=O)[C@@H]4C12 (some centres not stated)", 2.28],
  ["COC(=O)Cn1c(C(=O)N(C)C)cc2c1C[C@H]1CN(C(=O)c3ccccc3)[C@@](Cc3ccccc3)(C(=O)OC)[C@@H]21", -2.08],
  ["CN1C(=O)C2C(C1=O)C1C=C(CCCO)C2C(C2CC2)N1C (configuration not stated)", 0.667]
]}
